assay: Inhibition of HIV1 3B recombinant gp120/sCD4 binding interaction by ELISA
Please assign n whenever IC50 is at or above 700 nM, and y whenever it is below.

{"compound": "Cc1cc(-c2ccc(C(=O)C(=O)N3CCN(C(=O)c4ccccc4)C[C@H]3C)cc2)on1", "label": "n"}
{"compound": "CC1CN(C(=O)c2ccccc2)CCN1C(=O)C(=O)c1ccc(-n2nccn2)cc1 (racemic)", "label": "n"}
{"compound": "CC1CN(C(=O)c2ccccc2)CCN1C(=O)C(=O)c1ccc(-n2cncn2)cc1 (racemic)", "label": "n"}
{"compound": "C[C@@H]1CN(C(=O)c2ccccc2)CCN1C(=O)C(=O)c1ccc(-c2cc[nH]n2)cc1O", "label": "n"}
{"compound": "CC1CN(C(=O)c2ccccc2)CCN1C(=O)C(=O)c1ccc(-c2cc[nH]n2)cc1 (racemic)", "label": "n"}
{"compound": "COc1cc(-c2cc(C)no2)ccc1C(=O)C(=O)N1CCN(C(=O)c2ccccc2)C[C@H]1C", "label": "y"}
{"compound": "COc1cc(C(=O)C(=O)N2CCN(C(=O)c3ccccc3)C[C@H]2C)ccc1-c1cc[nH]n1", "label": "n"}
{"compound": "COc1cc(C(=O)C(=O)N2CCN(C(=O)c3ccccc3)C[C@H]2C)ccc1-c1cc(C)no1", "label": "n"}
{"compound": "COc1cnc(-n2ccnn2)c2[nH]cc(S(=O)(=O)N3CCN(C(=O)c4ccccc4)C[C@H]3C)c12", "label": "y"}
{"compound": "COc1cc(-c2ccn[nH]2)ccc1C(=O)C(=O)N1CCN(C(=O)c2ccccc2)C[C@H]1C", "label": "y"}
{"compound": "C[C@@H]1CN(C(=O)c2ccccc2)CCN1C(=O)C(=O)c1ccc(N2CCCC2)cc1", "label": "n"}
{"compound": "COc1ccnc2[nH]cc(C(=O)C(=O)N3CCN(C(=O)c4ccccc4)C[C@H]3C)c12", "label": "n"}
{"compound": "Cc1cc(-c2ccc(C(=O)C(=O)N3CCN(C(=O)c4ccccc4)C[C@H]3C)c(O)c2)on1", "label": "n"}
{"compound": "C[C@@H]1CN(C(=O)c2ccccc2)CCN1C(=O)C(=O)c1ccc(N2CCOC2=O)cc1", "label": "n"}
{"compound": "C[C@@H]1CN(C(=O)c2ccccc2)CCN1C(=O)C(=O)c1ccc(-c2cc[nH]n2)nc1", "label": "n"}
{"compound": "C[C@@H]1CN(C(=O)c2ccccc2)CCN1C(=O)C(=O)c1ccc(-c2ccn[nH]2)cc1Cl", "label": "n"}
{"compound": "COc1cc(C(=O)C(=O)N2CCN(C(=O)c3ccccc3)C[C@H]2C)ccc1-c1cnco1", "label": "n"}
